# system: IL16_4, Q14005
# Sequence (Q14005 1229-1329): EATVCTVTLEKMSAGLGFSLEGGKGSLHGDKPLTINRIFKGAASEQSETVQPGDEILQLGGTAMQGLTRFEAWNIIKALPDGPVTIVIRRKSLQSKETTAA
# protocol notes: holdup assay
# Design: key: below the threshold = too weak to quantify, mostly under pKd 3.1 to 4
# condition details: plain residues with an end cap or a label only (N-terminal biotin on a linker: ttds)

>  <binder>
GARVSKETPL [MAPK12, P53778]

>  <pKd>
3.58

$$$$
>  <binder>
PSRDRKETSI [RALBP1, Q15311]

>  <pKd>
below the threshold

$$$$
>  <binder>
SGGKRKETLV [NET1, Q7Z628]

>  <pKd>
below the threshold

$$$$
>  <binder>
QRPYRRESEI [KCNJ12, Q14500]

>  <pKd>
below the threshold

$$$$
